- assay-target: Glutamate receptor ionotropic, NMDA 1 (Rattus norvegicus, UniProt P35439)
- method-summary: In vitro ability to displace [3H]L-689,560 binding to glycine site on the N-methyl-D-aspartate (NMDA) glutamate receptor 1 from rat cortical membranes
property-label: IC50 (nM)

Examples from the recorded data:
>  <compound-string>
Oc1nc2cc(Cl)ccc2c(NCc2ccccc2)c1-c1ccccc1

>  <units-label>
nM

>  <IC50>
2000

$$$$
>  <compound-string>
N#CCOc1c(-c2cccc(Oc3ccccc3)c2)c(O)nc2cc(Cl)ccc12

>  <units-label>
nM

>  <IC50>
1200

$$$$
>  <compound-string>
COC(=O)CCc1c(-c2ccccc2)c(O)nc2cc(Cl)ccc12

>  <units-label>
nM

>  <IC50>
500

$$$$
>  <compound-string>
COC(=O)Cc1c(-c2ccccc2)c(=O)[nH]c2cc(Cl)ccc12

>  <units-label>
nM

>  <IC50>
1100

$$$$
>  <compound-string>
O=C(O)c1c(-c2ccccc2)c(=O)[nH]c2cc(Cl)ccc12

>  <units-label>
nM

>  <IC50>
900

$$$$
>  <compound-string>
O=C(O)CCc1c(-c2ccccc2)c(=O)[nH]c2cc(Cl)ccc12

>  <units-label>
nM

>  <IC50>
170

$$$$
>  <compound-string>
CN(C)CCNc1c(-c2ccccc2)c(=O)[nH]c2cc(Cl)ccc12

>  <units-label>
nM

>  <IC50>
3200

$$$$
>  <compound-string>
NC(=O)COc1c(-c2ccccc2)c(=O)[nH]c2cc(Cl)ccc12

>  <units-label>
nM

>  <IC50>
420

$$$$

[a] C/C(COc1c(-c2ccccc2)c(O)nc2cc(Cl)ccc12)=N\O
[b] O=c1[nH]c2cc(Cl)ccc2c(NS(=O)(=O)c2ccccc2)c1-c1ccccc1
// which entry reports the smaller IC50, a or b ? Indicate which entry you chose by stating its label. a
